- target.or.test.system: Membrane-associated tyrosine- and threonine-specific cdc2-inhibitory kinase (Homo sapiens, UniProt Q99640)
- Sequence (Q99640 whole entry, the tested form may be a part): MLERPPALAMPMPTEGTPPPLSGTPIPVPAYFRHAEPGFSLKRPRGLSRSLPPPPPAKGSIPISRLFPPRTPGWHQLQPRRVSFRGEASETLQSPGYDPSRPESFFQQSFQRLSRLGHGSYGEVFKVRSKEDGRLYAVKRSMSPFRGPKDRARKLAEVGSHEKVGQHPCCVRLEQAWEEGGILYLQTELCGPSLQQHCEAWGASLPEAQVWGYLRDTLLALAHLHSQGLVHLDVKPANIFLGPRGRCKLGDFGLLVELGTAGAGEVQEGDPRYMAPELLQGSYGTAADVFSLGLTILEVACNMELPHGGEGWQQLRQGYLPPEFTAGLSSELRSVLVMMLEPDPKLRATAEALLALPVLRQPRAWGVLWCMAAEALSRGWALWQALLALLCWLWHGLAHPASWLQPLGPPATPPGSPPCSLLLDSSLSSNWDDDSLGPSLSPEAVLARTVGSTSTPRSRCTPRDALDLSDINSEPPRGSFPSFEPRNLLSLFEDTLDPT
- procedure.summary: Inhibition of human full length PKMYT1 expressed in HEK293 cells using EFS (247 to 259 residues) as substrate after 1 hr by fluorescence polarization immunoasay
measured.property: pIC50
Formally, pIC50 is defined as -log10 of the concentration c, with c in mol/L.

What the record says about `COc1cc2ncnc(Nc3cccc(Cl)c3)c2cc1OC` : pIC50 is 4.71

get_value(item= `O=C(Nc1cccc(-c2nn3ncccc3c2-c2ccnc(Nc3cccnc3)n2)c1)c1c(F)cccc1F` , readout=pIC50) returns 5.12

Lookup result for `CCN(CC)CCOc1ccc(Nc2ncc3cc(-c4c(Cl)cccc4Cl)c(=O)n(C)c3n2)cc1` ; measured pIC50: 8.10

Notebook: NC(=O)c1cc(-c2ccncc2)cc(-c2ccccc2)c1N [GSK-625137A] , pIC50 read as 4.24

According to the records, this molecule Cc1cc(O)cc(C)c1/C=C/c1cncc(C(N)=O)c1 [GW435821X] displays pIC50 of 4.84

Looking up `Oc1cccc(Nc2ccnc3cc(-c4ccncc4)ccc23)c1` , I see its pIC50 listed as 6.15

Record `CNC(=O)c1ccccc1Nc1nc(Nc2ccc(N3CCOCC3)cc2)ncc1Cl` , field pIC50: 6.57

// field: pIC50; key: `Cn1c(=O)c(-c2c(Cl)cccc2Cl)cc2cnc(Nc3ccc(N4CCOCC4)cc3)nc21` ; value = 7.62

pIC50 reading for `CNC(=O)c1ccccc1Nc1nc(Nc2cccc(CS(C)(=O)=O)c2)ncc1C` : 6.94

Lab book: pIC50 of `Cc1cc(Nc2ncc3cc(-c4c(Cl)cccc4Cl)c(=O)n(C)c3n2)ccc1F` noted as 6.96

Short answer for `Cc1cc(O)cc(Nc2ccnc3cc(-c4ccccn4)ccc23)c1` : pIC50 was 6.27
